- Tested on: clostripain
- Construct: is a two-chain proteinase that can be isolated from Clostridium histolyticum; purchased Worthington LS001641
- experiment_description: Clostripain cleavage, LC/MS analysis
- Type: in vitro ADME, Clostridium histolyticum
- protocol_conditions: Clostridium histolyticum, clostripain (isolated protease), pH 7.6, 5 U clostripain/mg, 1 h; read-out: remaining % ABD variant
Where no end group is shown, it is not given here.
Recorded remaining at 1 h values for a group of sequences are listed next.
I only need the number, in %, no unit after it.

Answered examples (3):
residues	value_units	remaining at 1 h
GSSLAEAKEAANAELDSYGVSDFYKSLIDKAKTVEGVEALKDAILAALP [PEP12381]	%	91
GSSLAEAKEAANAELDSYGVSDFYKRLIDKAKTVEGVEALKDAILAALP [PEP07843, reference compound]	%	46
GSSLAEAKEAANAELDSYGVSDFYKNLIDKAKTVEGVEALKDAILAALP [PEP12379]	%	92

Next:
What value of remaining at 1 h has been recorded for this entry: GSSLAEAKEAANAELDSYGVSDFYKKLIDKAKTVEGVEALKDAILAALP [PEP12380]
96
